All values here come from the Human Domainome abundance scans (Beltran et al. 2025).

B1: Pituitary-specific positive transcription factor 1, residues 130 to 198; numbered along this chain, P28069 (parent)
chain: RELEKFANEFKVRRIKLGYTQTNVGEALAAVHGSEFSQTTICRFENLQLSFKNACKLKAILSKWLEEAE

# Variants of: B1
# experiment: abundance fitness (aPCA) (normalised: wild type 0, dead -1); higher = more abundant; growth selection in yeast, the domain comes from the species named
# experimental.parameters: Homo sapiens
Parameter threshold = 0.02. Response is yes (1) when abundance fitness meets or exceeds it, else no (0).

Is abundance fitness at least 0.02? Consider S37A
no (0)

What would you report for F51V ?
yes (1)

Entry to check: V24F
no (0)

Try this variant too: F6M
no (0)

Now consider K63A .
yes (1)

Also A30R ?
yes (1)
